Test system: HCT-15 colon
assay_text: NCI tumour cell line growth inhibition, 48 h
Would you mind telling me the reported TGI of each entry?

[ask] Please report TGI for the following molecule: O=C1C(c2c(O)n(-c3ccccc3)c3ccccc23)=Nc2ccccc21
[reply] > 100 µM

[ask] Supply reported TGI belonging to this molecule: C=CCSC1=N/C(=C\c2ccco2)C(=O)N1CC=C
[reply] > 100 µM

[ask] Give the reported TGI for this molecule. O=Cc1cc(O)ccc1Br
[reply] 40.7 µM

[ask] Return the recorded TGI value; entry: COc1ccc(C=O)c(N(C)C(=O)C(C)(C)C)c1
[reply] > 100 µM

[ask] // Input: NCCCNCCCNc1nc2ccccc2c2[nH]c3ccccc3c12 . Output its TGI only.
[reply] 4.95 µM

[ask] State, in one line, measured TGI of C[CH2][Sn]([CH2]C)([O]C(=O)c1cc(OC)c(OC)c(OC)c1)[O][Sn]([CH2]C)([CH2]C)[O]C(=O)c1cc(OC)c(OC)c(OC)c1
[reply] > 79 µM

[ask] Please supply the value of reported TGI for the item O=C(CN1c2ccccc2Sc2ccccc21)n1cnc2ccccc21
[reply] > 100 µM

[ask] Please indicate TGI recorded for CCOC(=O)C(NC(=O)Nc1ccccc1F)(OC)C(F)(F)F (centres undefined)
[reply] > 100 µM

[ask] Tell me its TGI given O=C(Nc1ccc(Cl)cc1)C(=O)C1=C(O)c2ccccc2OC1 as the entry.
[reply] > 100 µM

[ask] Kindly indicate its recorded TGI. Item: N=C(N)c1ccc(-c2ccc(-c3ccccc3)o2)cc1
[reply] 3.24 µM

[ask] Provide only the value of recorded TGI for Nc1ccc(C(=O)O)c2[nH]c3ccccc3c(=O)c12
[reply] > 100 µM

[ask] Dear colleague, please send me the reported TGI for O=C(O)C1CCCCN1CCc1c[nH]c2ccccc12 (centres undefined) when you can.
[reply] > 100 µM

[ask] // Input: Fc1cccc(C=NC23CC4CC(CC(C4)C2)C3)c1 . Output its TGI only.
[reply] > 100 µM

[ask] Report measured TGI; entry is COc1cc(/C=C2\N=C(c3ccccc3)N(/N=C/c3cc4cc(C)ccc4nc3Cl)C2=O)ccc1O
[reply] > 100 µM

[ask] Quote TGI reported for c1ncc(C23C4C5C6C4C2C6C53)[nH]1 (centres undefined) please.
[reply] > 100 µM

[ask] Give the value of TGI reported for the following: CC(=O)C(CN1CCOCC1)C(c1ccccc1)c1c(O)c2ccccc2oc1=O (centres undefined)
[reply] > 100 µM

[ask] Quick one: give measured TGI for Cn1cc(-c2csc(-c3cn(C)c4ncccc34)n2)c2ccccc21
[reply] > 100 µM

[ask] Report TGI for N#CCCN(CCC#N)c1ccc(/C=C2\N=C(c3ccccc3)N(NC(=O)c3ccncc3)C2=O)cc1
[reply] > 100 µM

[ask] Using the record for NC(=NCc1ccccc1)N/N=C\c1ccnc2ccccc12 , state its measured TGI.
[reply] 37.4 µM

[ask] Specify TGI for CCOC(=O)c1c(C)n(-c2ccc(C)cc2)c2c1cc(O)c1[nH]c3c(c12)CCCC3 and stop.
[reply] > 100 µM

[ask] State its TGI: CC1OC(OC2C(OC3CCC4(C)C(CCC5(C)C4CC=C4C6CC(C)(C)CCC6(CO)C(O)CC45C)C3(C)C)OC(C(=O)O)C(OC3OC(COC4OC(CO)C(O)C(O)C4O)C(O)C(O)C3O)C2O)C(O)C(O)C1O (centres undefined)
[reply] 18.8 µM

[ask] Tell me TGI reported for Cn1cc(-c2nonc2-c2cn(C)c3ccc(Br)cc23)c2ccccc21
[reply] > 100 µM

[ask] Provide TGI value for the following molecule: CN(C)c1ccc(N=C(C#N)c2nc(N)nc(N3CCOCC3)n2)cc1
[reply] > 100 µM

[ask] Please look at this molecule and report its TGI: CCOc1ccc(NC(=O)/C(=C/c2ccccc2)C(C)=O)cc1
[reply] 32.4 µM

[ask] Write down TGI measured for item CC(C)c1cc(C(C)C)c(P2(=O)CC3C(Cl)(Cl)C3(C)C2)c(C(C)C)c1 (centres undefined)
[reply] 25.1 µM

[ask] // fetch TGI given entry Cc1ccc(S(=O)(=O)OC(C=O)C(O)C(O)COC(c2ccccc2)(c2ccccc2)c2ccccc2)cc1 (centres undefined)
[reply] 27.1 µM

[ask] Query TGI for CCCCCNC(=O)C1C(=O)N(CCCCC)C(=O)/C1=N\N (centres undefined)
[reply] > 100 µM

[ask] Quote TGI reported for COc1ccccc1NS(=O)(=O)c1cc(C(C)(C)C)ccc1OCCOc1ccc(C(C)(C)C)cc1S(=O)(=O)Nc1ccccc1OC please.
[reply] > 100 µM

[ask] Indicate its recorded TGI; the molecule in question is CCOC(=O)/C(=C/c1c(-c2ccccc2)[nH]c2ccccc12)C(=O)c1ccc(Cl)cc1
[reply] > 100 µM

[ask] Quick one: give measured TGI for CCN=C(N)CSS(=O)(=O)O
[reply] > 100 µM

[ask] # return recorded TGI for input COC12c3ccccc3-c3ccccc3C1[C@@H](C(=O)O)[C@H]2C(=O)O (some centres undefined)
[reply] > 10 µM

[ask] Look up TGI of COc1ccc(Br)c(CCCCC(=O)O)c1 and report it.
[reply] > 100 µM

[ask] Consider the molecule CCOC(=O)C12CN(C34CC5CC(CC(C5)C3)C4)CC(C(=O)OCC)(C1=O)C(c1ccccc1)OC2c1ccccc1 (centres undefined) . State its measured TGI.
[reply] > 100 µM

[ask] // Input: COc1cc2nc(-c3ccc(Cl)cc3)cc(OCCCN3CCC(O)CC3)c2cc1OC . Output its TGI only.
[reply] 12.5 µM

[ask] Quick one: give measured TGI for CC(=O)/C(=C\n1c(=S)[nH]c2ccc([N+](=O)[O-])cc21)C(=O)Nc1ccccc1C
[reply] > 100 µM

[ask] Report TGI for O=C1c2cccnc2-c2nc(-c3ccccc3)cc3c2c1nc1ccccc13
[reply] 5.02 µM

[ask] Note down TGI recorded for CC[C@]12C=CCN3CC[C@]4(C(=C(C(=O)OC)C1)Nc1ccccc14)[C@@H]32
[reply] 10.4 µM

[ask] Quote TGI reported for CC/C(=C(/CC)c1ccc(OP(=O)([O-])[O-])cc1)c1ccc(OP(=O)([O-])[O-])cc1.N.N.N.N.[Pt+4].[Pt+4] please.
[reply] 45.4 µM

[ask] // Input: S=c1nc(/C=C/c2ccc(Cl)c(Cl)c2)[nH][nH]1 . Output its TGI only.
[reply] > 100 µM

====

I'd appreciate it if you could supply TGI values for the items below.
Test system: HCT-116 colon
assay_text: NCI tumour cell line growth inhibition, 48 h

[ask] Give a short answer stating reported TGI for CSC(=S)Nc1cc(C)ccn1 .
[reply] > 100 µM

[ask] Kindly indicate its recorded TGI. Item: O=C1C2=Cc3ccccc3CCN2c2ccc([N+](=O)[O-])cc21
[reply] > 100 µM

[ask] Find the measured TGI of COc1ccc(/C=N/Nc2nc3ccccc3c(=O)n2-c2ccccc2)cc1 and report it.
[reply] > 100 µM

[ask] Check the records and state TGI for CC(C)Cn1cnnc1NS(=O)(=O)c1cc(C(=O)NN)c(Cl)cc1S
[reply] > 10 µM

[ask] Return TGI for the following compound: CCOC(=O)/C(=C/c1c(-c2ccccc2)[nH]c2ccccc12)C(=O)c1ccc(Cl)cc1
[reply] > 100 µM

[ask] Supply recorded TGI for CC1(c2nc3ccccc3[nH]2)CCC(CO)C(C)(C)O1 (configuration not stated) here.
[reply] > 100 µM

[ask] // fetch TGI given entry CC1=NN(c2ccccc2Cl)C2(C1)SCC(=O)N2c1nc2ccccc2s1 (configuration not stated)
[reply] > 100 µM

[ask] Tell us which TGI value is on record for COc1ccc(C2C(Cl)C(=O)N2NC(=O)c2ccc(NC(C)=O)cc2)cc1OC (configuration not stated)
[reply] > 100 µM

[ask] Entry Cc1cc2c(C)nn(Cc3ccc(Cl)cc3Cl)c2c(C#N)c1C needs its TGI filled in; supply it.
[reply] > 100 µM

[ask] Please give the documented TGI of COc1cc2c(cc1OCCCN1CCN(CCCOc3cc4c(cc3OC)C(=O)C3CCC[C@H]3C=N4)CC1)N=C[C@@H]1CCCC1C2=O (some centres not stated)
[reply] > 100 µM

[ask] Identify measured TGI associated with CCOC(=O)/C(C#N)=N\Nc1ccc(-n2c(C)nc3ccc(Br)cc3c2=O)cc1
[reply] > 100 µM

[ask] Give the reported value of TGI for this record: Nc1ccc(C(=O)O)c2[nH]c3ccccc3c(=O)c12
[reply] > 100 µM

====

Test system: K-562 leukemia
assay_text: NCI tumour cell line growth inhibition, 48 h
Please go through the items and note down their TGI.

[ask] Determine its reported TGI: C#CCSc1nnnn1-c1ccc(Br)c(C)c1
[reply] > 100 µM

[ask] Supply reported TGI belonging to this compound: ClCc1nc2cc(Cl)ccc2o1
[reply] > 100 µM

[ask] Supply measured TGI of Nc1nc(Cl)c(N)c(NCC2(CO)CC(O)C2)n1 (stereo not drawn) in your reply.
[reply] > 100 µM

Reference for the values: PubChem BioAssay (NCI)
